# system tested: HLA-A2.1 (heavy chain with human beta 2-microglobulin) (human)
Each record is given YES if its reported IC50 is strictly below 3 nM. Records at or above 3 nM are given NO.

Previously resolved entries follow.
YTWGQYWQV [G9-154-1Y] ... YES
KTFGQYWQV [G9-154-3F] ... NO
ALWGQYWQV [G9-154-1A2L] ... YES
WTWGQYWQV [G9-154-1W] ... NO
LLWGQYWQV [G9-154-1L2L] ... YES
KMWGQYWQV [G9-154-2M] ... NO
YLWGQYWQV [G9-154-1Y2L] ... YES
WLWGQYWQV [G9-154-1W2L] ... YES
LTWGQYWQV [G9-154-1L] ... NO
FTWGQYWQV [G9-154-1F] ... YES

Please check: IC50 for KLWGQYWQV [G9-154-2L] , strictly under 3 nM or not?
YES

Please check: IC50 for KTYGQYWQV [G9-154-3Y] , strictly under 3 nM or not?
NO

Please check: IC50 for ATWGQYWQV [G9-154-1A] , strictly under 3 nM or not?
NO

Please check: IC50 for FLWGQYWQV [G9-154-1F2L] , strictly under 3 nM or not?
YES

The reported numbers originate from patent US20040214995A1.
